test: Solubility of crystalline forms; assay type: physicochemical; conditions: room temperature, 24 hours
Field: Solubility pH 7.0 Phosphate Buffer. Provide a value for each of the compounds that follow.
Phrase the answer as number then unit, nothing more needed.

Please give the measured Solubility pH 7.0 Phosphate Buffer for this compound: Cc1onc(NS(=O)(=O)c2ccccc2-c2ccc(-c3ncco3)cc2CN(C)C(=O)CC(C)(C)C)c1C [Form 3]
251 μg/mL

Please give the result for Cc1onc(NS(=O)(=O)c2ccccc2-c2ccc(-c3ncco3)cc2CN(C)C(=O)CC(C)(C)C)c1C [Form 1] too.
264 μg/mL

Input Cc1onc(NS(=O)(=O)c2ccccc2-c2ccc(-c3ncco3)cc2CN(C)C(=O)CC(C)(C)C)c1C [Form 2]
35 μg/mL

Continue with Cc1onc(NS(=O)(=O)c2ccccc2-c2ccc(-c3ncco3)cc2CN(C)C(=O)CC(C)(C)C)c1C [Form 4]
138 μg/mL
